Documented Ki across a set of compounds
Molecular target: human V1a receptor (Homo sapiens, UniProt P37288)
Construct: host or cells: CHO cells
Sequence (P37288 whole entry): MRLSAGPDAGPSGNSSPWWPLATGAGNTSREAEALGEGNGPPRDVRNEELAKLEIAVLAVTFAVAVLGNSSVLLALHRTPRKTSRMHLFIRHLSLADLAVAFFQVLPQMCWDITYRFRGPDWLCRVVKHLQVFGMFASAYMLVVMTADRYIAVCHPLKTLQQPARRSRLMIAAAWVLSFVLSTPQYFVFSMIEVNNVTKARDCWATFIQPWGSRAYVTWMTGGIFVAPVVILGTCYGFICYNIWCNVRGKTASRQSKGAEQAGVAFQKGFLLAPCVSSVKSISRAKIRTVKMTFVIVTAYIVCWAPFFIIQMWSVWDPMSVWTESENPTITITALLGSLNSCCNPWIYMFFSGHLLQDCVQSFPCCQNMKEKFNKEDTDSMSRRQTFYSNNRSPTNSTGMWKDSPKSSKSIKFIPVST
Experiment: Human vasopressin V1a receptor binding assay
Conditions: hV1a CHO cell line, competition with 1 nM 3H-AVP; read-out: V1a Ki

{"compound": "CN(Cc1cccc(C(F)(F)F)c1)C(=O)C(CCC(=O)N1CCN(C2CCCCC2)CC1)N1C(=O)C(N2C(=O)OCC2c2ccccc2)C1C=Cc1ccccc1 (stereo not drawn)", "Ki (nM)": 0.21}
{"compound": "O=C(NC1CCc2ccccc21)C(CCC(=O)N1CCN(C2CCCCC2)CC1)N1C(=O)C(N2C(=O)OCC2c2ccccc2)C1C=Cc1ccccc1 (stereo not drawn) [Example 221R]", "Ki (nM)": 3.14}
{"compound": "O=C(NCc1cc(F)cc(C(F)(F)F)c1)C(CCC(=O)N1CCN(C2CCCCC2)CC1)N1C(=O)C(N2C(=O)OCC2c2ccccc2)C1C=Cc1ccccc1 (stereo not drawn)", "Ki (nM)": 0.51}

###

Biological target: human V1a receptor (Homo sapiens, UniProt P37288)
Construct: host or cells: CHO cells
Test: Human vasopressin V1a receptor binding assay
Conditions: hV1a CHO cell line, competition with 1 nM 3H-AVP; read-out: V1a Binding Affinity IC50
pIC50: −log10 of the molar value.
property-name: pIC50

{"compound": "O=C(NC1(c2ccccc2)CCCC1)C(CCC(=O)N1CCN(C2CCCCC2)CC1)N1C(=O)C(N2C(=O)OCC2c2ccccc2)C1C=Cc1ccccc1 (stereo not shown) [Example 217]", "property-name": "pIC50", "readout-number": 8.50}
{"compound": "CC(NC(=O)C(CC(=O)N1CCC(N2CCCCC2)CC1)N1C(=O)C(N2C(=O)OCC2c2ccccc2)C1CCc1cccc([N+](=O)[O-])c1)c1ccccc1 (stereo not shown) [Example 597]", "property-name": "pIC50", "readout-number": 8.21}
{"compound": "O=C(NC1CCCc2ccccc21)C(CCC(=O)N1CCN(C2CCCCC2)CC1)N1C(=O)C(N2C(=O)OCC2c2ccccc2)C1C=Cc1cccc(C(F)(F)F)c1 (stereo not shown) [Example 246]", "property-name": "pIC50", "readout-number": 8.68}
{"compound": "O=C(NCc1cc(C(F)(F)F)ccc1F)C(CCC(=O)N1CCN(C2CCCCC2)CC1)N1C(=O)C(N2C(=O)OCC2c2ccccc2)C1C=Cc1ccccc1 (stereo not shown) [Example 177]", "property-name": "pIC50", "readout-number": 9.17}
{"compound": "Cc1ccc(CNC(=O)C(CCC(=O)N2CCN(C3CCCCC3)CC2)N2C(=O)C(N3C(=O)OCC3c3ccccc3)C2C=Cc2ccccc2)o1 (stereo not shown) [Example 212]", "property-name": "pIC50", "readout-number": 9.02}
{"compound": "O=C(NC1CCCc2ccccc21)C(CCC(=O)N1CCN(C2CCCCC2)CC1)N1C(=O)C(N2C(=O)OCC2c2ccccc2)C1C=Cc1cccc([N+](=O)[O-])c1 (stereo not shown) [Example 249]", "property-name": "pIC50", "readout-number": 8.77}
{"compound": "COc1cc(CNC(=O)C(CCC(=O)N2CCN(C3CCCCC3)CC2)N2C(=O)C(N3C(=O)OCC3c3ccccc3)C2C=Cc2ccccc2)cc(OC)c1 (stereo not shown) [Example 201]", "property-name": "pIC50", "readout-number": 7.98}
{"compound": "O=C(NCc1ccccc1C(F)(F)F)C(CCC(=O)N1CCN(C2CCCCC2)CC1)N1C(=O)C(N2C(=O)OCC2c2ccccc2)C1C=Cc1ccccc1 (stereo not shown) [Example 182]", "property-name": "pIC50", "readout-number": 8.82}
{"compound": "CN(Cc1cccc(C(F)(F)F)c1)C(=O)C(CCC(=O)N1CCN(C2CCCCC2)CC1)N1C(=O)C(N2C(=O)OCC2c2ccccc2)C1C=Cc1ccccc1 (stereo not shown) [Example 205]", "property-name": "pIC50", "readout-number": 9.47}
{"compound": "O=C(NCc1cccs1)C(CCC(=O)N1CCN(C2CCCCC2)CC1)N1C(=O)C(N2C(=O)OCC2c2ccccc2)C1C=Cc1ccccc1 (stereo not shown) [Example 213]", "property-name": "pIC50", "readout-number": 9.11}
{"compound": "Cc1ccccc1C(C)(C)NC(=O)C(CCC(=O)N1CCN(C2CCCCC2)CC1)N1C(=O)C(N2C(=O)OCC2c2ccccc2)C1C=Cc1ccccc1 (stereo not shown) [Example 221]", "property-name": "pIC50", "readout-number": 8.29}
{"compound": "O=C(NCc1cc(Cl)ccc1Cl)C(CCC(=O)N1CCN(C2CCCCC2)CC1)N1C(=O)C(N2C(=O)OCC2c2ccccc2)C1C=Cc1ccccc1 (stereo not shown) [Example 175]", "property-name": "pIC50", "readout-number": 8.34}
{"compound": "O=C(NC1Cc2ccccc2C1)C(CCC(=O)N1CCN(C2CCCCC2)CC1)N1C(=O)C(N2C(=O)OCC2c2ccccc2)C1C=Cc1ccccc1 (stereo not shown) [Example 221P]", "property-name": "pIC50", "readout-number": 8.77}
